From: patent US20070148184A1

Please provide measured pEC50 for the entries that follow.
Biological target: UniProtKB P04439
Sequence (P04439 25-365): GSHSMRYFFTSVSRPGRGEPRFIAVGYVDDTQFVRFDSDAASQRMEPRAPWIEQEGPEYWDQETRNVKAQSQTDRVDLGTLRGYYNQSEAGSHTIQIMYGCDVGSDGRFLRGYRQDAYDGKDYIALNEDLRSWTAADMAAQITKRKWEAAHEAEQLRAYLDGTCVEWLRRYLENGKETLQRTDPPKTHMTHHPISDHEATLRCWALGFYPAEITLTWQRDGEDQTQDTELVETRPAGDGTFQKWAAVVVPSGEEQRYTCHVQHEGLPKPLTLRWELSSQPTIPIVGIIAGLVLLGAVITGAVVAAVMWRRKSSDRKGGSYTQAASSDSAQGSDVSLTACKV
Sequence (P61769 21-119 partner): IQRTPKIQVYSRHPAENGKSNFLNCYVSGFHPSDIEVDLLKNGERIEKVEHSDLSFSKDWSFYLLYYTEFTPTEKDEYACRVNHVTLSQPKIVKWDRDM
Assay: Assembly assay, HLA-A3
Settings: Table 4, HLA-A3; read-out: C50
One number for each entry, as −log10 of the molar value.

[
  {
    "COMPOUND": "CC[C@H](C)[C@H](NC(=O)[C@@H](N)CCCCN)C(=O)N[C@@H](C)C(=O)N[C@@H](CCCCN)C(=O)N[C@@H](CCC(=O)O)C(=O)N[C@H](C(=O)N[C@@H](CC(N)=O)C(=O)N[C@@H](CC(N)=O)C(=O)N[C@@H](CCCCN)C(=O)O)[C@@H](C)O",
    "TEST_TARGET": "UniProtKB P04439",
    "pEC50": 5.70
  }
]

Shift focus to the following entry.
// returns reported pEC50 for input CC[C@H](C)[C@H](NC(=O)[C@@H](N)CCCCN)C(=O)N[C@@H](C)C(=O)N[C@@H](CCCCN)C(=O)N[C@@H](CCC(=O)O)C(=O)N[C@H](C(=O)N[C@@H](CC(N)=O)C(=O)N[C@@H](CC(N)=O)C(=O)N[C@@H](CCCCN)C(=O)N[C@@H](CCCCN)C(=O)O)[C@@H](C)O
6.00
